Biological target: Human liver Cathepsin B (Homo sapiens, UniProt P07858)
Assay: Cathepsin B cleavage assay of linker-payloads
Details: Table 1D
measurement_type: CapB cleavage rate (%) at 4 hrs
State just the number; it will be interpreted in %.

Worked examples, 2 molecules total:
molecule	CapB cleavage rate (%) at 4 hrs
CC(C)[C@H](NC(=O)[C@@H](CCCCNC(=O)COC1CCCCCc2c1nnn2CCOCCOCCOCCOCCC(=O)NCCS(=O)(=O)O)NC(=O)CCOCCOCCOCCOCCNC(=O)CCC(=O)N1Cc2ccccc2C#Cc2ccccc21)C(=O)N[C@@H](C)C(=O)Nc1ccc2c(c1)[C@@]1(C)CCC[C@](C)(C(=O)NC(=O)[C@@]3(C)CCC[C@]4(C)c5cc(O)ccc5CC[C@@H]34)[C@@H]1CC2 (stereo partly drawn)	44.2
CCCC1O[C@@H]2C[C@H]3[C@@H]4C[C@H](F)C5=CC(=O)C=C[C@]5(C)[C@@]4(F)[C@@H](O)C[C@]3(C)[C@]2(C(=O)COc2ccc(NC(=O)[C@H](CCCNC(N)=O)NC(=O)[C@@H](NC(=O)[C@@H](CCCCNC(=O)COC3CCCCCc4c3nnn4CCOCCOCCOCCOCCC(=O)NCCS(=O)(=O)O)NC(=O)CCOCCOCCOCCOCCNC(=O)CCC(=O)N3Cc4ccccc4C#Cc4ccccc43)C(C)C)cc2)O1 (stereo partly drawn)	31.0

Could you now look at the following molecule, please?
input: Form field: reported CapB cleavage rate (%) at 4 hrs of CC[C@H](C)[C@@H]([C@@H](CC(=O)N1CCC[C@H]1[C@H](OC)[C@@H](C)C(=O)N[C@H](C)[C@@H](O)c1ccccc1)OC)N(C)C(=O)[C@@H](NC(=O)[C@H](C(C)C)N(C)C(=O)OCc1ccc(NC(=O)[C@H](CCCNC(N)=O)NC(=O)[C@@H](NC(=O)[C@@H](CCCCNC(=O)COC2CCCCCc3c2nnn3CCOCCOCCOCCOCCOCCP(=O)(O)O)NC(=O)CCOCCOCCOCCOCCNC(=O)CCC(=O)N2Cc3ccccc3C#Cc3ccccc32)C(C)C)cc1)C(C)C (stereo partly drawn)
output: 50

Entry source: patent US20240408223A1
